inhibition at 0.01 µM listing for selected molecules.
Target: ErbB1 (Homo sapiens, UniProt P00533)
Sequence (P00533 25-1210): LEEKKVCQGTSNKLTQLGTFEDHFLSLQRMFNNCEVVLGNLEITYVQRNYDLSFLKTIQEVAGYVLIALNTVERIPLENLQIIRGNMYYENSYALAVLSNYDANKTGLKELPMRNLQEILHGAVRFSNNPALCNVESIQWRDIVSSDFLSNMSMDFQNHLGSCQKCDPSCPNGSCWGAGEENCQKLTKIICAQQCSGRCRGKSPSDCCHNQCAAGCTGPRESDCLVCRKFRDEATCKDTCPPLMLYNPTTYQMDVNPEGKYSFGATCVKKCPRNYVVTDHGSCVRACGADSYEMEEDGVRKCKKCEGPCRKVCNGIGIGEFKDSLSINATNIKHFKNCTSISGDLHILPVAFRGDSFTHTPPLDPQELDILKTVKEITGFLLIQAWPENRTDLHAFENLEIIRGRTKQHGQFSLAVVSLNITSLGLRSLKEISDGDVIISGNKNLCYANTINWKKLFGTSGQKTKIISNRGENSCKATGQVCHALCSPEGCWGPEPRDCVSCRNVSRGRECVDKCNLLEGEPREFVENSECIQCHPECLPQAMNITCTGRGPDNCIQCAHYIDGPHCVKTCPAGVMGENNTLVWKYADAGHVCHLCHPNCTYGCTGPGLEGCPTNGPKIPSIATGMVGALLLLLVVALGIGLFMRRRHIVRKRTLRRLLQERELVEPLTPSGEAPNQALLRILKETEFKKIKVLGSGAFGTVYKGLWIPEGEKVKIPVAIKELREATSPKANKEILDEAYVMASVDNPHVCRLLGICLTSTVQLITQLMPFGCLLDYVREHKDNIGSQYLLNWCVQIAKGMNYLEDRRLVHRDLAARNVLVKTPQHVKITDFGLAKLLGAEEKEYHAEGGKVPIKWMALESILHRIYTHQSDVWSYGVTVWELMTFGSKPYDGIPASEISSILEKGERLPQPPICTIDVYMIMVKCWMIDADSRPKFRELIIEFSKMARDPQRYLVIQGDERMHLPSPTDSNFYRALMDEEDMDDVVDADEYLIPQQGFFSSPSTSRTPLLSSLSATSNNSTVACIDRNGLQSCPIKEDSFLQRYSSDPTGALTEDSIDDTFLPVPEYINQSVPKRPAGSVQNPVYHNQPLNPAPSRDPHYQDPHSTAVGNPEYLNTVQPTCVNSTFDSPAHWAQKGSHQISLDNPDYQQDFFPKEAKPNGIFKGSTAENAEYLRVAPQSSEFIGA
Assay: Z'-LYTE biochemical assay, ErbB1 kinase inhibition
Settings: @ 10 nM

smiles_str | value_measured
C=CS(=O)(=O)Nc1cccc(Nc2cc(Nc3cccc(C)c3)ncn2)c1 | 100%

Qu. Give its inhibition at 0.01 µM value. Item: C=CC(=O)Nc1cccc(Nc2cc(Nc3cccc(C)c3)ncn2)c1
Ans. 100%

Qu. Give its inhibition at 0.01 µM value. Item: C/C=C/C(=O)Nc1cccc(Nc2cc(Nc3cccc(Br)c3)ncn2)c1
Ans. 83%

* * *

pIC50 listing for selected molecules.
Target: BTK (Homo sapiens, UniProt Q06187)
Sequence (Q06187 whole entry): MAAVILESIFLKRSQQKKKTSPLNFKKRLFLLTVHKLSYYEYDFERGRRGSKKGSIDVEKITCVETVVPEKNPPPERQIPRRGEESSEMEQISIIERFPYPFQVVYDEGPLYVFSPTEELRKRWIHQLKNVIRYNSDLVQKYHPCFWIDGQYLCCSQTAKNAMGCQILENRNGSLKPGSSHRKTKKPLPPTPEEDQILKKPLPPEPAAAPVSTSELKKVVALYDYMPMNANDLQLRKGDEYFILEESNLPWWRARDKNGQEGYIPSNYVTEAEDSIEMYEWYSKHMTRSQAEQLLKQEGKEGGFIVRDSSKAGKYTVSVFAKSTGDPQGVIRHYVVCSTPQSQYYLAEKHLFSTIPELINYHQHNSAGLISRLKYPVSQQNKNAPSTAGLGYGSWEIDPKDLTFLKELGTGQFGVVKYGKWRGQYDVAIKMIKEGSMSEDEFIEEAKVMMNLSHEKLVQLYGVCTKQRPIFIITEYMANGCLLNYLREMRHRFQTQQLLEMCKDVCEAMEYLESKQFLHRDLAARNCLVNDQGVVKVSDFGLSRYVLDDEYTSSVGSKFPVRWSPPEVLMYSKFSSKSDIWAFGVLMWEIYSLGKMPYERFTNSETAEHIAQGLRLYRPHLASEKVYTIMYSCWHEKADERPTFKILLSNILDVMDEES
pIC50: −log10 of the molar value.

Below are worked cases with known answers.
molecule | pIC50
Cc1cccc(Nc2cc(Nc3cccc(NC(=O)/C=C/CN4CCNCC4)c3)ncn2)c1 | 5.00 to 6.00
Cc1cccc(Nc2cc(Nc3cccc(NC(=O)/C=C/CN(C)C)c3)ncn2)c1 | ≥ 8.00
C=CC(=O)Nc1cccc(Nc2cc(Oc3ccc(Oc4ccccc4)cc3)ncn2)n1 | ≥ 8.00
C=CC(=O)N1CCC(Nc2cc(Nc3ccc(Oc4ccccc4)cc3)ncn2)C1 (stereo not drawn) | 7.00 to 8.00

Qu. Give its pIC50 value. Item: CN(C)C/C=C/C(=O)Nc1cccc(Nc2cc(Nc3ccc(Oc4ccccc4)cc3)ncn2)c1
Ans. ≥ 8.00

Qu. Give its pIC50 value. Item: C=CC(=O)Nc1ccc(Nc2cc(Nc3cccc(Br)c3)ncn2)cc1
Ans. 5.00 to 6.00

Qu. Give its pIC50 value. Item: C=CC(=O)Nc1cccc(Nc2cc(Oc3cccc(C)c3)ncn2)n1
Ans. ≥ 8.00

Qu. Give its pIC50 value. Item: CN(C)C/C=C/C(=O)Nc1cccc(Nc2cc(Nc3ccc(Oc4ccccc4)cc3)ncn2)n1
Ans. ≥ 8.00

Qu. Give its pIC50 value. Item: C=CC(=O)Nc1cc(Nc2cc(Oc3cccc(Cl)c3)ncn2)ccc1N1CCOCC1
Ans. 7.00 to 8.00
